Experiment: Conversion (release) of prodrug salts to parent compound in mouse plasma
Assay type: in vitro ADME
Settings: mouse, plasma, 37 °C, 1 h, read-out: Release rate (conversion to Compound 83)
measurementLabel: metabolised at 1 h (%)
Report only the number, with the unit % understood.

(Q) What value of metabolised at 1 h has been reported for the following compound? CC1=C2CC[C@@](C)(OC(=O)N3CCCCC3)[C@@H]2[C@H]2OC(=O)[C@@H](CN(C)C)[C@@H]2CC1 [Compound 102]
(A) 6.6

(Q) What value of metabolised at 1 h has been reported for the following compound? CC1=C2CC[C@@](C)(OC(=O)N3CCCCC3)[C@@H]2[C@H]2OC(=O)[C@@H](CN3CCCC3)[C@@H]2CC1 [Compound 100]
(A) 6.6

====

Exercise: state measured degraded at 4 h for each of the compounds provided.
Test: Conversion (release) of prodrug salts to parent compound in HEPES buffer pH 7.4
Format: in vitro ADME
Conditions: hepes buffer, pH 7.4, HEPES pH 7.4, 37 °C, 4 h; read-out: Release rate (conversion to Compound 1)
Experimental: Pharmaceutically acceptable salts of guaiane-type sesquiterpene lactone derivatives were selected and evaluated for their conversion rates to Compound 1 and Compound 83 in plasma and HEPES buffer, with results shown in Tables 2-1, 2-2, 3-1, and 3-2. Experimental Method: Preparation of HEPES 7.4 Solution: Dissolve 1.6 g NaCl, 0.074 g KCl, 0.027 g Na2HPO4, 0.2 g glucose, and 1 g 4-(2-Hydroxyethyl)piperazine-1-ethanesulfonic acid (HEPES) solution in 90 mL distilled water. […]
Report only the number, with the unit % understood.

(Q) What value of degraded at 4 h has been reported for the following compound? C[C@@]12CC[C@@H]3[C@H](OC(=O)[C@H]3CN3CC4CCCC4C3)[C@@H]3[C@]1(CC[C@@]3(C)O)C2 (some centres unmarked) [Compound 32]
(A) 26.2

(Q) What value of degraded at 4 h has been reported for the following compound? C[C@@]12CC[C@@H]3[C@H](OC(=O)[C@H]3CN3CCC4(CC3)CC4)[C@@H]3[C@]1(CC[C@@]3(C)O)C2 [Compound 37]
(A) 28.3

(Q) What value of degraded at 4 h has been reported for the following compound? CCCN(CCC)C[C@@H]1C(=O)O[C@H]2[C@H]1CC[C@@]1(C)C[C@]13CC[C@@](C)(O)[C@H]23 [Compound 29]
(A) 24.6

(Q) What value of degraded at 4 h has been reported for the following compound? C[C@@]12CC[C@@H]3[C@H](OC(=O)[C@H]3CN3CCCCC3)[C@@H]3[C@]1(CC[C@@]3(C)O)C2 [Compound 24]
(A) 26.7

(Q) What value of degraded at 4 h has been reported for the following compound? CCN(CC)C[C@@H]1C(=O)O[C@H]2[C@H]1CC[C@@]1(C)C[C@]13CC[C@@](C)(O)[C@H]23 [Compound 28]
(A) 24.4

(Q) What value of degraded at 4 h has been reported for the following compound? C[C@@]12CC[C@@H]3[C@H](OC(=O)[C@H]3CN3CCC4(CCCC4)CC3)[C@@H]3[C@]1(CC[C@@]3(C)O)C2 [Compound 34]
(A) 27.6

(Q) What value of degraded at 4 h has been reported for the following compound? C[C@@]12CC[C@@H]3[C@H](OC(=O)[C@H]3CN3CCC(N4CCCCC4)CC3)[C@@H]3[C@]1(CC[C@@]3(C)O)C2 [Compound 35]
(A) 26.4

(Q) What value of degraded at 4 h has been reported for the following compound? C[C@@]12CC[C@@H]3[C@H](OC(=O)[C@H]3CN3CCCC3)[C@@H]3[C@]1(CC[C@@]3(C)O)C2 [Compound 22]
(A) 26.6

(Q) What value of degraded at 4 h has been reported for the following compound? C[C@@]12CC[C@@H]3[C@H](OC(=O)[C@H]3CN3CCNCC3)[C@@H]3[C@]1(CC[C@@]3(C)O)C2 [Compound 26]
(A) 27.3

(Q) What value of degraded at 4 h has been reported for the following compound? CC(C)N(C[C@@H]1C(=O)O[C@H]2[C@H]1CC[C@@]1(C)C[C@]13CC[C@@](C)(O)[C@H]23)C(C)C [Compound 31]
(A) 23

(Q) What value of degraded at 4 h has been reported for the following compound? CCCCN(CCCC)C[C@@H]1C(=O)O[C@H]2[C@H]1CC[C@@]1(C)C[C@]13CC[C@@](C)(O)[C@H]23 [Compound 30]
(A) 23.8

(Q) What value of degraded at 4 h has been reported for the following compound? C[C@@]12CC[C@@H]3[C@H](OC(=O)[C@H]3CN3CCOCC3)[C@@H]3[C@]1(CC[C@@]3(C)O)C2 [Compound 25]
(A) 26.1

(Q) What value of degraded at 4 h has been reported for the following compound? CN(C)C[C@@H]1C(=O)O[C@H]2[C@H]1CC[C@@]1(C)C[C@]13CC[C@@](C)(O)[C@H]23 [Compound 39]
(A) 26.8

(Q) What value of degraded at 4 h has been reported for the following compound? C[C@@]12CC[C@@H]3[C@H](OC(=O)[C@H]3CN3CCC(N4CCOCC4)CC3)[C@@H]3[C@]1(CC[C@@]3(C)O)C2 [Compound 36]
(A) 26

Ref: patent US20260315434A1
